test: Toxicity liver stage against HepG2, at 10uM; type: cell-based; parameters: test concentration 10 uM, cell line HepG2-A16-CD81EGFP; conditions: human, HepG2-A16-CD81EGFP cells; read-out: INHIBITION
Listed here: items and their measured cytotoxicity at 10 µM.
Number only, in %; omit the unit.

Prompt line: For Cc1cnn(CC2CN(CC(=O)NCc3ccccn3)CCO2)c1 (configuration not stated) , what is its reported cytotoxicity at 10 µM?
Response line: -5.8

Prompt line: Again, but for CN(CCN1CCN(c2ccccc2)CC1)C(=O)Nc1ccncc1
Response line: 11.5

Prompt line: Again, but for COc1ccc(NC(=O)N(C)Cc2ccco2)cn1
Response line: -11.8

Prompt line: Again, but for CCn1c(C)nnc1SCCNC(=O)c1cnc(N(C)C)nc1C
Response line: 6.9

Prompt line: Again, but for CCCc1c(C(=O)N2CCN(c3nccc(OC)n3)CC2)cnn1C
Response line: 17.2

Prompt line: Again, but for O=C(NCCc1cc(=O)[nH]cn1)c1[nH]nc2c1CCCC2
Response line: 2.22

Prompt line: Again, but for O=C(NCCc1nnc2n1CCC2)NCC1(c2ccccc2)CC1
Response line: -7.35

Prompt line: Again, but for Cc1noc(C)c1CN1CCC2(COCc3cnc(N(C)C)nc32)C1 (configuration not stated)
Response line: 9.93

* * *

experiment: Toxicity liver stage against HepG2, at 10uM; assay type: cell-based; design: test concentration 10 uM, cell line HepG2-A16-CD81EGFP; details: human, HepG2-A16-CD81EGFP cells; read-out: INHIBITION
observedProperty: cytotoxicity at 10 µM (%)
Number only, in %; omit the unit.

Below: 5 molecules and their reported cytotoxicity at 10 µM.
Cc1ccc(OCCSCCn2nc3ccccn3c2=O)cc1 | 7
Cc1cc(C)c(C(=O)NC(CN2CCCC2)c2ccccc2)c(=O)[nH]1 (stereo unspecified) | -2.57
O=C(NCC1(N2CCOCC2)CCSC1)Nc1ccncc1 (stereo unspecified) | 12.5
CNC(=O)CNC(=O)Nc1cc(-c2ccccc2)ns1 | 22
CC(C)NC(=O)N1CC[C@@H]2[C@@H]1CC(=O)N2Cc1cccnc1 | 4.67

Would you kindly look at the next entry?
Prompt line: For CC(C)(C)CC(=O)Nc1ccc(S(C)(=O)=O)nc1 , what is its reported cytotoxicity at 10 µM?
Response line: -3.05

* * *

assay: Toxicity liver stage against HepG2, at 10uM; assay type: cell-based; set-up: test concentration 10 uM, cell line HepG2-A16-CD81EGFP; conditions: human, HepG2-A16-CD81EGFP cells; read-out: INHIBITION
observedProperty: cytotoxicity at 10 µM (%)
Number only, in %; omit the unit.

Below: 5 compounds and their reported cytotoxicity at 10 µM.
Cc1cc2c(=O)n3c(nc2s1)CCN(C(=O)c1cnn(C)c1)CC3 | -1.94
CCOCC1CN(Cc2ccc(OC)cc2)Cc2nn(C)cc21 (stereo unspecified) | 3.65
COc1ccc(C2=CCN(C(=O)CN(C)CC(C)C#N)CC2)cc1 (stereo unspecified) | -9.52
COc1cc(CN2CCCCCC2c2cccs2)cc(OC)c1OC (stereo unspecified) | 33.3
O=S1(=O)CCC(S(=O)(=O)c2cccc(S(=O)(=O)N3CCOCC3)c2)C1 (stereo unspecified) | 3.42

Would you kindly look at the next entry?
Prompt line: For CC(C)N(CCO)C(=O)C1CCC(=O)N(Cc2ccc(Cl)cc2)C1 (stereo unspecified) , what is its reported cytotoxicity at 10 µM?
Response line: -4.9

* * *

experiment: Toxicity liver stage against HepG2, at 10uM; format: cell-based; parameters: test concentration 10 uM, cell line HepG2-A16-CD81EGFP; conditions: human, HepG2-A16-CD81EGFP cells; read-out: INHIBITION
observedProperty: cytotoxicity at 10 µM (%)
Number only, in %; omit the unit.

CC(C)C(c1cccnc1)N(C)C(=O)Cc1c(F)cccc1F (stereo not drawn) | -0.595
Cc1ccccc1CC(=O)N(C)C1CCN(c2ccccn2)CC1 | -2.74

Prompt line: For COc1ccnc(CN2CCCC(CCc3ccccc3)C2)c1OC (stereo not drawn) , what is its reported cytotoxicity at 10 µM?
Response line: 0.979

Prompt line: Again, but for CC(C(=O)NCCCN1CCN(c2ccccc2)CC1)n1cncn1 (stereo not drawn)
Response line: -5.93

Prompt line: Again, but for CC1CCCCN1CCNC(=O)NCc1ccc(C#N)cc1F (stereo not drawn)
Response line: 0.616

* * *

assay: Toxicity liver stage against HepG2, at 10uM; assay type: cell-based; design: test concentration 10 uM, cell line HepG2-A16-CD81EGFP; conditions: human, HepG2-A16-CD81EGFP cells; read-out: INHIBITION
observedProperty: cytotoxicity at 10 µM

COc1ccc(N2CCN(Cc3nc(CSC)no3)C(C)C2=O)cc1 (centres undefined) | 3.28%
CC(C)N1CCC2(CC1)NC(=O)c1cc(Br)ccc1-n1nnnc12 | 9.26%
CCOCCC(=O)N1CCCC(CO)(CC2CC2)C1 (centres undefined) | 7.58%
CCOc1ccc(OCc2nc3c(c(=O)[nH]2)CCNC3)cc1 | 8.55%
O=C(Nc1cc(C(F)(F)F)c[nH]c1=O)c1ccco1 | -8.28%
NCc1ccc(OC(F)F)cc1OC(F)F | -43%
N#Cc1cccc(CN2Cc3nccn3CC(COCC3CC3)C2)c1 (centres undefined) | -127%
O=C(NC1CCC1)[C@@H]1C[C@@H]2CCN(Cc3ccncc3)C[C@H]2O1 | -22.5%

Prompt line: For Cc1nnc(-c2cccc(C#N)c2)n1C1CCN(C2CC2)C1=O (centres undefined) , what is its reported cytotoxicity at 10 µM?
Response line: -11.8%

Prompt line: Again, but for Cc1cccc(N2CCN(C(=O)C3CC4(CCNCC4)CN3)CC2)n1 (centres undefined)
Response line: -4.27%

Prompt line: Again, but for O=C(C1CNCCN1C(=O)CCOc1ccccc1)N1CCCC1 (centres undefined)
Response line: -7.42%

* * *

Listed here: items and their measured cytotoxicity at 10 µM.
experiment: Toxicity liver stage against HepG2, at 10uM; format: cell-based; design: test concentration 10 uM, cell line HepG2-A16-CD81EGFP; settings: human, HepG2-A16-CD81EGFP cells; read-out: INHIBITION
Number only, in %; omit the unit.

Below: 6 molecules and their reported cytotoxicity at 10 µM.
CC(C1CCN(Cc2c(Cl)ccc(O)c2Cl)CC1)N1CCN(C)CC1 (centres undefined) | -12
O=C(c1ccncc1)N1CCCC2(COCCN(c3ccccc3)C2)C1 (centres undefined) | 2.31
Cc1noc(C)c1-c1cccc(CC2CCN(C(=O)CCC(=O)O)C2)n1 (centres undefined) | -8.44
Cc1nn(C)c(C)c1CC(=O)N1CCc2nnc(N(C)C)cc2C1 | -7.63
CC(CN1CCCC1)C(=O)N1CCC(c2nccn2CC2CC2)CC1 (centres undefined) | -26.3
O=C(C(O)c1ccccc1Cl)N1CCCN(Cc2cccnc2)CC1 (centres undefined) | 5.5

Prompt line: For COc1cc(NC(=O)N(C)Cc2ccc(Br)o2)ncn1 , what is its reported cytotoxicity at 10 µM?
Response line: -4.12

Prompt line: Again, but for COCC(=O)N1CC(c2ccnc(Nc3ccc(C)cn3)n2)C1
Response line: -30.9

Prompt line: Again, but for CCC(CNC(=O)NCc1cc[nH]n1)N1CCCC1 (centres undefined)
Response line: -3.65

Prompt line: Again, but for c1cnnc(N2CCCC2CNCc2nc(-c3ccoc3)no2)c1 (centres undefined)
Response line: -18.7

* * *

assay: Toxicity liver stage against HepG2, at 10uM; assay type: cell-based; design: test concentration 10 uM, cell line HepG2-A16-CD81EGFP; settings: human, HepG2-A16-CD81EGFP cells; read-out: INHIBITION
Listed here: items and their measured cytotoxicity at 10 µM.
Number only, in %; omit the unit.

Prompt line: For CC(C)c1cc(NC(=O)CN2CCCC2Cn2cncn2)on1 (centres undefined) , what is its reported cytotoxicity at 10 µM?
Response line: -4.05

Prompt line: Again, but for O=C(c1ccncc1)N1C[C@@H](OCc2cccnc2)[C@H]2OCCC[C@H]21
Response line: 0.866

Prompt line: Again, but for Cc1ccnc(C2CCN(CCCOc3ccccc3F)C2)n1 (centres undefined)
Response line: 6.04

Prompt line: Again, but for Cc1cccc(OCC(O)CN2CCN(c3nccs3)CC2)c1 (centres undefined)
Response line: 16.5

Prompt line: Again, but for CCc1nccn1CCC(=O)N1CC[C@@H](c2sccc2C)[C@H](O)C1
Response line: -6.04

Prompt line: Again, but for COc1ccc(CCNC(=O)CC(NC(N)=O)c2ccccc2)cc1 (centres undefined)
Response line: 2.19

Prompt line: Again, but for O=C(Nc1ccc(F)c(-n2cccc2)c1)NC1(CCO)CCOCC1
Response line: 8.67

Prompt line: Again, but for Cc1ccc(N2CCCC(NCc3ccsc3)C2)nn1 (centres undefined)
Response line: -7.42

Prompt line: Again, but for Cc1nnsc1C(=O)N1CCCCC1c1cc2nc(C)c(C)c(O)n2n1 (centres undefined)
Response line: -5.93

Prompt line: Again, but for COc1c(C2CCCN2C(=O)c2cnccn2)c(C)nn1C (centres undefined)
Response line: 0.501
